Reference source for all entries: paper PMC2566937

biological target: α3β3γ2 GABAA receptor (Rattus norvegicus, UniProt P20236+P63079)
Sequence (P20236 29-493): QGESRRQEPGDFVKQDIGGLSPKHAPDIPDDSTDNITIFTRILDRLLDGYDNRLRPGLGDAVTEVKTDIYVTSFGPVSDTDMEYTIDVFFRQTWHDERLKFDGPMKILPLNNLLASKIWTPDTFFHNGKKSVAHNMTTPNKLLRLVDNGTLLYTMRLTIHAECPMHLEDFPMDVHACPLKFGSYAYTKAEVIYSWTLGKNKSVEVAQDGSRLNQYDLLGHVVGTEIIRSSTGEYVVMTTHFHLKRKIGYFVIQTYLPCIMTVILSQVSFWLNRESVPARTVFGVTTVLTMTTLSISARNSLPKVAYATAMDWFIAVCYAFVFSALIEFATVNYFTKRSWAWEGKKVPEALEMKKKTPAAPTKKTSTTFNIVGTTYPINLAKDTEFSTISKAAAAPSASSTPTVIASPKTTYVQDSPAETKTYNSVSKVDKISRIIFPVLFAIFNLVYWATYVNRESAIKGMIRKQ
Sequence (P63079 26-473): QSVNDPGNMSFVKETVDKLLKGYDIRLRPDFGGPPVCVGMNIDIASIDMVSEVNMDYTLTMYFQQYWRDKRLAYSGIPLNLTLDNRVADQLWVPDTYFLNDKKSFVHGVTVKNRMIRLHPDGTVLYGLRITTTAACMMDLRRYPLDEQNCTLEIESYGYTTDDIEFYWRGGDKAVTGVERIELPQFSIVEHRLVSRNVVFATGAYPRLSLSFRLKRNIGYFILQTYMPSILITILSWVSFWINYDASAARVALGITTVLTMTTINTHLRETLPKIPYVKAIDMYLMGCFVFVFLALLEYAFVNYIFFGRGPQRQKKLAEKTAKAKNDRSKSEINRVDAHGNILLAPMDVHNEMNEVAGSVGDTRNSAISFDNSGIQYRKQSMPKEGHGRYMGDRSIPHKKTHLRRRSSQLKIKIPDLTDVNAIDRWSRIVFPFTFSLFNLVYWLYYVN
Sequence (P18508 39-466 partner): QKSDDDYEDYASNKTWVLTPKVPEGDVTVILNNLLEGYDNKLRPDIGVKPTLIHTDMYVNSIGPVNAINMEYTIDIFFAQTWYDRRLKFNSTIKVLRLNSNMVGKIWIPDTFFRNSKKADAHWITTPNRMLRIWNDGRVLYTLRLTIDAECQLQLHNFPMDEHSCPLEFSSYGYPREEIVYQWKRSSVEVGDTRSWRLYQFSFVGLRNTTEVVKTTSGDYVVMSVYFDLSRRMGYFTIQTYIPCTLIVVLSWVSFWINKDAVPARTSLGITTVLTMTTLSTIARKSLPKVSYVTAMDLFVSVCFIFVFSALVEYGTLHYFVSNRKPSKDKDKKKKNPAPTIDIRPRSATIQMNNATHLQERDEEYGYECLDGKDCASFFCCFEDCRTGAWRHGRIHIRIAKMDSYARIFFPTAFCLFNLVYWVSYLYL
MEASUREMENT_LABEL: pEC50
Formally, pEC50 is defined as -log10 of the concentration c, with c in mol/L.

Name the recorded pEC50 of the item Cl.NCc1nnc(O)o1 in your answer.
3.00

###

pseudo-Hill coefficient η, cortex by entry:
test system: GABA recognition site (GABAA receptors) in native cortical membranes; test: [3H]muscimol binding, rat cortical membranes; conditions: against 6 nM [3H]muscimol; mean ± S.E.M.
Kindly provide the number alone.

Reference set, count: 4
{"CHEM_SMILES": "Cl.NCc1nnc(S)o1", "VALUE": 0.92}
{"CHEM_SMILES": "Cl.Oc1nnc(C2CCNCC2)o1", "VALUE": 0.86}
{"CHEM_SMILES": "Cl.NCc1nnc(O)o1", "VALUE": 1.12}
{"CHEM_SMILES": "Cc1nnc(C2CCNCC2)o1.Cl", "VALUE": 0.88}

Name the recorded pseudo-Hill coefficient η, cortex of the item Cl.Sc1nnc(C2CCNCC2)o1 in your answer.
0.99

###

tested on: GABA recognition site (GABAA receptors) in native cerebellar membranes; experiment: [3H]muscimol binding, rat cerebellar membranes; conditions: against 6 nM [3H]muscimol; mean ± S.E.M.
Friendly reminder: pseudo-Hill coefficient η, cerebellum below 1 is criterion met, at or above is criterion not met.

{"CHEM_SMILES": "Cl.NCc1nnc(O)o1", "CATEGORY": "criterion met"}
{"CHEM_SMILES": "Cl.Sc1nnc(C2CCNCC2)o1", "CATEGORY": "criterion not met"}
{"CHEM_SMILES": "Cc1nnc(C2CCNCC2)o1.Cl", "CATEGORY": "criterion met"}
{"CHEM_SMILES": "Cl.Oc1nnc(C2CCNCC2)o1", "CATEGORY": "criterion met"}

Attention now shifts to the item below.
I'd appreciate it if you could check whether Cl.NCc1nnc(S)o1 has pseudo-Hill coefficient η, cerebellum smaller than 1.
criterion met
